PBM E-score overview
Target: Hmlalpha2 (UniProt P0CY09)
Sequence: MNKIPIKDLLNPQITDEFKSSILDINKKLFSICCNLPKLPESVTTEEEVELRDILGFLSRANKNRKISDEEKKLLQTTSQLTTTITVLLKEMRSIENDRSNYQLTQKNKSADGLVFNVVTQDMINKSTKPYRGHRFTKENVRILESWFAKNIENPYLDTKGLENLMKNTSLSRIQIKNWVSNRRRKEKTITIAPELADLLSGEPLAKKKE
Test: PBM E-score (8-mer binding enrichment) (E-score (-0.5 to 0.5)); higher = stronger / more preferred TF binding
Details: protein concentration: 200 nM; construct: GST-full length
Whole data set: some 33,000 sequences, median “E-score (-0.5 to 0.5)” near -0.04, cut for the highest 2% near 0.36. Shown is part of a subset that was picked to be rich in the highest values.
Lab note: record the figure alone, no unit after it.

# annotated cases, reported PBM E-score shown
RESIDUES: AGGTAAGA
PBM E-score: -0.0177
--
RESIDUES: CCTTACAC
PBM E-score: 0.334

In: # get_value(readout='PBM E-score', item= `AGATATAA` )
Out: 0.127

In: # get_value(readout='PBM E-score', item= `GTTTAACA` )
Out: 0.41

In: # get_value(readout='PBM E-score', item= `CTGTAAGC` )
Out: -0.0257

In: # get_value(readout='PBM E-score', item= `ATAGCAGA` )
Out: 0.00582

In: # get_value(readout='PBM E-score', item= `ATAGACTG` )
Out: -0.0652

In: # get_value(readout='PBM E-score', item= `ACTTACAG` )
Out: 0.134

In: # get_value(readout='PBM E-score', item= `CTGCCATC` )
Out: -0.239

In: # get_value(readout='PBM E-score', item= `TCGGAGCA` )
Out: -0.279

In: # get_value(readout='PBM E-score', item= `TGTAGGAA` )
Out: 0.226

In: # get_value(readout='PBM E-score', item= `AACATCTT` )
Out: -0.0095

In: # get_value(readout='PBM E-score', item= `CCTTGTTA` )
Out: 0.371

In: # get_value(readout='PBM E-score', item= `AACGTAAT` )
Out: 0.379

In: # get_value(readout='PBM E-score', item= `ACTTGTTA` )
Out: 0.259

In: # get_value(readout='PBM E-score', item= `CTGTAAGA` )
Out: 0.0715

In: # get_value(readout='PBM E-score', item= `GAATTGAC` )
Out: 0.104

In: # get_value(readout='PBM E-score', item= `ACTGCTCA` )
Out: 0.0532

In: # get_value(readout='PBM E-score', item= `AAATCCGG` )
Out: -0.18

In: # get_value(readout='PBM E-score', item= `CATACACG` )
Out: 0.398
